System: A549/ATCC NSCLC
Test: NCI-60 one-dose screen, 48 h (100 = growth as untreated, 0 = no growth, -100 = all killed)
Details: 10 µM unless noted
Procedure: Growth inhibition of the A549/ATCC human Non-Small Cell Lung tumor cell line is measured as a screen for anti-cancer activity. Cells are grown in 96 well plates and exposed to the test compound for 48 hours. Compounds are tested at a single concentration, which is 10^-5 M for most compounds. The reported endpoint is percent growth (GI% or GIPRCNT), where numbers from 0 - 100% represent growth inhibition, and numbers from -100% - 0 represent cell death. […]
About 83,000 compounds went through this panel and 20% of them were active in at least one assay; those are over-represented in the sample as a whole.
Class definitions on growth: group A (below 40%), group B (40% to below 90%), group C (90% or more)

Assign a bin to `O=S1(=O)CCN(Cc2ccccc2)CC1`
group C

In plain terms, what class is `COc1cc(C(=O)NN=C2c3ccccc3-c3ccccc32)cc(OC)c1OC` ?
group B

Lab note: which band did `CCOC(=O)c1cnc2c(C)cccc2c1Nc1ccc(C(C)=O)cc1` land in?
group A

Lab note: which band did `C[n+]1c2ccccc2nc2ccc(NCCO)cc21` land in?
group B

For the record COc1cccc(C(=O)NC(c2ccc(C)cc2)c2cc(Cl)c3cccnc3c2O)c1 (stereo unspecified) , report the class its growth corresponds to.
group A

Quick check: band for O=C1CCC(N2C(=O)c3cccc(NCCCCCCOc4ccc(Nc5nccc(Nc6ccccc6)n5)cc4)c3C2=O)C(=O)N1 (stereo unspecified)
group B

Could you place `COc1ccc(/C=C/C(=O)c2ccc(Nc3nc(NCCO)nc(Nc4ccc(Cl)cc4)n3)cc2)cc1` in its proper category? Many thanks.
group B

Please let me know in which category the item `Clc1ccc(COc2ccc(Nc3ncnc4onc(-c5ccccc5)c34)cc2)cc1` belongs.
group B

Just checking, what class would you give NC1C(N)C(N)C1N (stereo unspecified) here?
group C

The entry to classify is COc1cc(C2C(C#N)=C(N)OC3=C2C(=O)c2ccccc2C3=O)cc(OC)c1O (stereo unspecified) ; which class holds it?
group B

Bin? `O=c1oc2ccc(F)cc2c(=O)n1-c1ccc(Br)cc1F`
group A

Category lookup for the compound `O=C(Nc1ccc(N2CCNCC2)cc1)c1[nH]ncc1Nc1cc(C2CC2)ncn1`
group A

The entry to classify is `Nc1nonc1-n1nncc1-c1cccnc1` ; which class holds it?
group C

Textbook exercise: identify the category of the compound given here, `NC(CCl)=NCCC[C@H](N)C(=O)O` , according to its measured value.
group C

Hi, small favor: classify `O=c1oc2ccc(Br)cc2c(=O)n1-c1ccc(Br)cc1F` by its growth when you get a moment.
group A
